measurement target: T1, ECF20_992
T1 chain: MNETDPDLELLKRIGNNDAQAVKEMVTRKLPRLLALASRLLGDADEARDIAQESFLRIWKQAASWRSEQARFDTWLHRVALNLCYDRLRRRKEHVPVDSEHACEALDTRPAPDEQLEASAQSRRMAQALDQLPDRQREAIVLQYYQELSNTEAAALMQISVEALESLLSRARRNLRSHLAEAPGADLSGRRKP
Use 5 as the dividing line for fold repression, with the line itself on the condition met side and lower values as condition not met.

The following binders have reported results that may help.
| binder | class assignment |
| --- | --- |
| AS14_1324 (protein) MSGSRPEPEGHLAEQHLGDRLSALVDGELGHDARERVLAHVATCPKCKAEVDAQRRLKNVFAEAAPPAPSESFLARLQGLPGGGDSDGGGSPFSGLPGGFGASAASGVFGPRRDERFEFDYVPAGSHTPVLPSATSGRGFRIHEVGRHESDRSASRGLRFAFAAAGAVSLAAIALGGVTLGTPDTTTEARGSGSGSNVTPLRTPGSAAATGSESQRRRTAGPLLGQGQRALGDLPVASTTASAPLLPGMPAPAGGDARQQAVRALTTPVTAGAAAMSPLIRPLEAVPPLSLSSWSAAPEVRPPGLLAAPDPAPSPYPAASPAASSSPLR | condition met |
| AS37_2513 (protein) MSSAPATKEEVDFALKVRRALDERAASLPDATTDRLAAARRAALARKKPDAAIVLVPALAGSAGTLELRPPGEPRKSLARRLARAWPLALLLAGLIGIAYWEDMQRTAELADIDAAMLSDNLPLTAYLDHGFNAYLSHTH | condition met |
| AS33_423 (protein) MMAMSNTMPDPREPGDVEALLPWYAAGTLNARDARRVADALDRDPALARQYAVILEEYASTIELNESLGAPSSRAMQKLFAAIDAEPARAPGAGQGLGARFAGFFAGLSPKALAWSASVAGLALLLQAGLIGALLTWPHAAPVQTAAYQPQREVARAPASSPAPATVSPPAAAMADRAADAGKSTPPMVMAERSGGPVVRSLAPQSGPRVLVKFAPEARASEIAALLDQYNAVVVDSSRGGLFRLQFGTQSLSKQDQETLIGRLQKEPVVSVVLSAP | condition met |
| AS16_3622 (protein) MMKTDELISLLATAEGPVDRHALARRLGLALLAGLLGALLLTVALYGVRSDLAEVARTPLFWAKVALPTSLALLGLWLTQRLARPGVRGGALWGLLGVPLLLVWLGAAISLFGAPPEARADLIFGRTWRTCALNITLLSTPVFIAVFWALRGLAPTRLRQAGAAGGLLAGSTATLVYCLHCPEMGVPFWGLWYLLGMLVPTLLGAVLGPRLLRW | condition not met |
| AS25_1645 (protein) MNESFSQRQTDGDRRRGGDLEMKKNHTSHQHHTDSETPMGHNFEQFQRLSAYFDGEATPAERKEIQHLLDTDPQVKQQYQQLRQLKQALQLLPIPTSISAQYLGQRVLARLRRSQLRTLSLWGSGAIAALFVAGVMGQMPRLNFDRFAKNDPDQQPTAALVETSPQGEEALVVALNRPVLQIPKLATTESP | condition met |

--- query ---
Q. Entry AS31_34 (protein) MNKEKLSDHLKSEWKKIDQTANPSIPNQKELLHQLSQMKAEYRKKLLQEIILFVFCALMVVSAAILAFTQAPAVFIVLQVCVLAVLPILIAAEKKRHLGECEVKRG : is its fold repression no less than 5?
A. condition not met

Reference for the values: paper PMC3817407
